Protocol details: chemical genetic growth profiling, strain panel (AID 1159580);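 note: tested at 20 µM; growth read once vehicle control cultures reached saturation at 30 °C; lower values mean less growth of the strain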
Applied conditions: S. cerevisiae deletion strains, growth OD, locus YER016W, strain bim1
Out of some 5,500 compounds screened, about 2,000 (36%) were called active. Inconclusive results (about 18%) are left out. Cut-off read from the data, not from the text of the source: active = normalized growth mostly below about 0.91 (no sharp cut-off); inconclusive = no clear call, values can overlap the other calls; inactive = mostly above about 0.92. The list shows a part of the results.
Write down one outcome, taken from active, inactive

[ask] I'd appreciate the recorded outcome for `CN(C)CCCN1c2ccccc2CCc2ccccc21` from this test.
[reply] inactive

[ask] I'd appreciate the recorded outcome for Cc1c(C)c2c(c(C)c1O)CCC(C)(CCCC(C)CCCC(C)CCCC(C)C)O2 (stereo not drawn) from this test.
[reply] inactive

[ask] I'd appreciate the recorded outcome for `CN[C@@H]1[C@H](O)[C@H](NC)[C@H]2O[C@@]3(O)C(=O)C[C@@H](C)O[C@H]3O[C@@H]2[C@H]1O` from this test.
[reply] inactive

[ask] I'd appreciate the recorded outcome for `COc1cc(C/C=C/c2ccccc2)c(OC)cc1O` from this test.
[reply] inactive

[ask] I'd appreciate the recorded outcome for `N=C(N)N` from this test.
[reply] inactive

[ask] I'd appreciate the recorded outcome for `CCOC(=O)[C@H](CCc1ccccc1)N[C@@H](C)C(=O)N1CCC[C@H]1C(=O)O` from this test.
[reply] inactive

[ask] I'd appreciate the recorded outcome for COc1ccccc1OCC(O)CO (stereo not drawn) from this test.
[reply] inactive

[ask] I'd appreciate the recorded outcome for `Cc1cn[nH]c1` from this test.
[reply] inactive

[ask] I'd appreciate the recorded outcome for `CN(C)CCCN1c2ccccc2Sc2ccc(Cl)cc21` from this test.
[reply] active

[ask] I'd appreciate the recorded outcome for `CN(C)CCCN1c2ccccc2CCc2ccc(Cl)cc21` from this test.
[reply] inactive

[ask] I'd appreciate the recorded outcome for `CCCc1cc(=O)[nH]c(=S)[nH]1` from this test.
[reply] inactive

[ask] I'd appreciate the recorded outcome for CC1=CCCC2C1(C)CCC(C)C2(C)CC/C(C)=C/C[n+]1cn(C)c2c(N)ncnc21 (stereo not drawn) from this test.
[reply] inactive

[ask] I'd appreciate the recorded outcome for `CC[N+](C)(C)c1cccc(O)c1` from this test.
[reply] inactive
